Target: human β3 adrenergic receptor (Homo sapiens, UniProt P13945)
Construct: expressed in transfected cells; host or cells: DXB-11 Chinese hamster ovary (CHO) cell line, stably transfected (phd expression vector)
Sequence (P13945 whole entry): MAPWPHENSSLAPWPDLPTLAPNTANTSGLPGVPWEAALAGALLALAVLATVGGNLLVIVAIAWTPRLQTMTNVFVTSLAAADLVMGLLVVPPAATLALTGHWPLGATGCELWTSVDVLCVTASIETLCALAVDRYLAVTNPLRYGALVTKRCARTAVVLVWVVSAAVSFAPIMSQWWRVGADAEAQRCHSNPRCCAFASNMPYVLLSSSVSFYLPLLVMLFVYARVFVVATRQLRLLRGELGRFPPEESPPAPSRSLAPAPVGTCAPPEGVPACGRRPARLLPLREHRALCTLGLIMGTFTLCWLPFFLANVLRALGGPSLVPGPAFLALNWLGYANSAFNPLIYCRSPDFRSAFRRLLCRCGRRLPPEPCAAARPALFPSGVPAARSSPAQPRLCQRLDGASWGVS
Test: whole cell receptor coupled c-AMP assay, human β3 receptor in CHO cells (EC50, Emax relative to isoproterenol)
Assay type: cell-based
Settings: % intrinsic activity relative to isoproterenol maximal response; average of at least 3 runs; c-AMP in transfected CHO cells
metric: Emax (%) ± SEM

For CC(C)(Cc1ccc(Oc2ccc(S(C)(=O)=O)cc2)cc1)NC[C@H](O)COc1ccccc1-c1ccsc1.Cl the compound record lists Emax (%) ± SEM as 32.3 ± 1.9%

Noted for CC(C)(Cc1ccc(Oc2cccnc2C#N)cc1)NC[C@H](O)COc1ccccc1-c1ccsc1.Cl : its Emax (%) ± SEM reads 53.4 ± 6.9%

Per the record, CC(C)(Cc1ccc(Oc2ccc(S(C)(=O)=O)cc2)cc1)NC[C@H](O)COc1ccccc1-c1ccncc1.Cl.Cl has Emax (%) ± SEM of 33.0 ± 4.2%

# Emax (%) ± SEM (compound: Cc1ccc(-c2ccccc2OC[C@@H](O)CNC(C)(C)Cc2ccc(Oc3ccc(C#N)cn3)cc2)s1.Cl ) is 64.4 ± 7.1%

Summary for this compound, CC(C)(Cc1ccc(Oc2cccnc2C#N)cc1)NC[C@H](O)COc1ccccc1-c1ccco1.Cl : Emax (%) ± SEM is 67.1 ± 3.0%

Consider CC(=O)c1ccc(-c2ccccc2OC[C@@H](O)CNC(C)(C)Cc2ccc(Oc3ccc(S(C)(=O)=O)cc3)cc2)s1.Cl . Its measured Emax (%) ± SEM is 76.9 ± 5.0%

Measured Emax (%) ± SEM, Cc1ccc(-c2ccccc2OC[C@@H](O)CNC(C)(C)Cc2ccc(Oc3cccnc3C#N)cc2)s1.Cl : 60.1 ± 8.2%

Lab note: CC(C)(Cc1ccc(Oc2ccc(C#N)cn2)cc1)NC[C@H](O)COc1c(F)cccc1-c1ccco1.Cl gave Emax (%) ± SEM of 77.4 ± 9.0%

The compound listed as CC(C)(Cc1ccc(Oc2ncccc2C#N)cc1)NC[C@H](O)COc1ccccc1-c1cc2ccccc2s1 shows Emax (%) ± SEM equal to 46.9 ± 6.7%

Reported Emax (%) ± SEM of CC(C)(Cc1ccc(Oc2ccc(C#N)cn2)cc1)NC[C@H](O)COc1ccccc1-c1ccco1.Cl : 74.0 ± 6.5%

Field Emax (%) ± SEM (entry CC(C)(Cc1ccc(Oc2ncccc2C#N)cc1)NC[C@H](O)COc1ccccc1-c1cccnc1 ) reads 14.4 ± 1.7%

Emax (%) ± SEM recorded for this compound, CC(C)(Cc1ccc(Oc2ncccc2C#N)cc1)NC[C@H](O)COc1c(F)cccc1-c1ccc(Cl)s1.Cl , is 64.3 ± 12.4%

Given item CC(C)(Cc1ccc(Oc2ncccc2C#N)cc1)NC[C@H](O)COc1c(F)cccc1-c1ccco1.Cl , the value recorded as its Emax (%) ± SEM is 73.4 ± 4.4%

Reported Emax (%) ± SEM for CC(C)(Cc1ccc(Oc2ccc(C#N)cn2)cc1)NC[C@H](O)COc1ccccc1-c1ccsc1 was 60.2 ± 3.2%

For this compound ( CC(C)(Cc1ccc(Oc2ccc(C#N)cn2)cc1)NC[C@H](O)COc1c(F)cccc1-c1ccsc1.Cl ), measured Emax (%) ± SEM is 61.0 ± 7.1%

Data point: CC(=O)c1ccc(-c2ccccc2OC[C@@H](O)CNC(C)(C)Cc2ccc(Oc3ncccc3C#N)cc2)s1.O=C(O)C(F)(F)F ; Emax (%) ± SEM = 80.6 ± 5.7%

Lab note: measured Emax (%) ± SEM of CC(C)(Cc1ccc(Oc2ccc(C#N)cn2)cc1)NC[C@H](O)COc1ccccc1-c1cc2ccccc2s1 was 45.4 ± 5.6%

What the record says about CC(C)(Cc1ccc(Oc2ncccc2C(N)=O)cc1)NC[C@H](O)COc1ccccc1-c1ccsc1.O=C(O)C(F)(F)F : Emax (%) ± SEM is 58.5 ± 6.9%

The reported value for CC(C)(Cc1ccc(Oc2ccc(C#N)cn2)cc1)NC[C@H](O)COc1ccccc1-c1ccncc1 in terms of Emax (%) ± SEM is 29.0 ± 6.8%

// Emax (%) ± SEM lookup, compound = CC(C)(Cc1ccc(Oc2ccc(C#N)cn2)cc1)NC[C@H](O)COc1ccccc1-c1ccc(Cl)s1.O=C(O)C(F)(F)F , result: 55.8 ± 7.1%

Entry Cc1ccc(-c2cccc(F)c2OC[C@@H](O)CNC(C)(C)Cc2ccc(Oc3ccc(C#N)cn3)cc2)s1.Cl ; Emax (%) ± SEM = 72.4 ± 6.9%

Measured Emax (%) ± SEM, CC(C)(Cc1ccc(Oc2ncccc2C#N)cc1)NC[C@H](O)COc1ccccc1-c1cc2ccccc2o1 : 38.9 ± 3.9%

Consider CC(C)(Cc1ccc(Oc2ccc(C#N)cn2)cc1)NC[C@H](O)COc1c(F)cccc1-c1ccc(Cl)s1.Cl . Its measured Emax (%) ± SEM is 75.5 ± 6.9%

Field Emax (%) ± SEM (entry Cc1ccc(-c2ccccc2OC[C@@H](O)CNC(C)(C)Cc2ccc(Oc3ncccc3C#N)cc2)s1.Cl ) reads 66.9 ± 9.2%

For CC(C)(Cc1ccc(Oc2ccc(C(N)=O)cn2)cc1)NC[C@H](O)COc1ccccc1-c1ccncc1 the compound record lists Emax (%) ± SEM as 49.3 ± 0.3%

// Emax (%) ± SEM lookup, compound = CC(C)(Cc1ccc(Oc2ccc(C(N)=O)cn2)cc1)NC[C@H](O)COc1ccccc1-c1cc2ccccc2o1 , result: 40.3 ± 2.8%

Record CC(C)(Cc1ccc(Oc2ncccc2C#N)cc1)NC[C@H](O)COc1ccccc1-c1ccc(Cl)s1.O=C(O)C(F)(F)F . Reported Emax (%) ± SEM: 65.7 ± 11.4%

For this compound ( CC(=O)c1ccc(-c2ccccc2OC[C@@H](O)CNC(C)(C)Cc2ccc(Oc3ccc(C(N)=O)cn3)cc2)s1.O=C(O)C(F)(F)F ), measured Emax (%) ± SEM is 78.2 ± 9.9%

Per the record, CC(C)(Cc1ccc(Oc2ccc(C(N)=O)cn2)cc1)NC[C@H](O)COc1ccccc1-c1ccsc1 has Emax (%) ± SEM of 37.7 ± 1.6%

Notebook: Cc1ccc(-c2ccccc2OC[C@@H](O)CNC(C)(C)Cc2ccc(Oc3ncccc3C(N)=O)cc2)s1.Cl , Emax (%) ± SEM read as 79.3 ± 2.4%

Data provenance: patent US6730792B2
